# testTarget: human opioid receptor (δ) (Homo sapiens)
# Construct: expressed in transfected cells
# runDescription: Opioid receptor binding, [3H]naltrindole (δ)
Ki strictly less than 700 nM = yes. Otherwise no.

Worked set:
• C[C@H]1C2Cc3ccc4c(N)onc4c3[C@@]1(C)CCN2CC1CC1 = yes
• CC1C2Cc3ccc4c(N)ncnc4c3C1(C)CCN2CC1CC1 (centres unmarked) = yes

Query: Record CC1C2Cc3cc4nc[nH]c4cc3C1(C)CCN2CC1CC1 (centres unmarked) : is its Ki strictly below 700 nM?
Result: yes

Query: Could you do the same for CC1C2Cc3ccc4c(NCCc5ccc(-c6ccccc6)cc5)ncnc4c3C1(C)CCN2CC1CC1 (centres unmarked) , please?
Result: yes

Query: Try this compound too: CC1C2Cc3ccc(C(N)=O)c(N)c3C1(C)CCN2CC1CC1 (mixture of isomers)
Result: yes

Query: Would you mind doing Cc1nc2cc3c(cc2[nH]1)CC1C(C)C3(C)CCN1CC1CC1 (centres unmarked) as well?
Result: yes

Query: Next compound up: CC1C2Cc3cc4ncnc(NCc5ccccc5)c4cc3C1(C)CCN2CC1CC1 (centres unmarked)
Result: no

Query: # repeat for CC1C2Cc3ccc4c(NCc5ccccc5)ncnc4c3C1(C)CCN2CC1CC1 (centres unmarked)
Result: no

Query: Queued: CC1C2Cc3cc4[nH]c(=O)[nH]c4cc3C1(C)CCN2CC1CC1 (centres unmarked)
Result: no

Query: Repeat with C[C@H]1C2Cc3cc(N)c(C(N)=O)cc3[C@@]1(C)CCN2CC1CC1 (racemic)
Result: no

Query: Also need CC1C2Cc3cc4ncnc(NCCc5ccc(-c6ccccc6)cc5)c4cc3C1(C)CCN2CC1CC1 (centres unmarked) , thanks.
Result: yes

* * *

# testTarget: human opioid receptor (κ) (Homo sapiens, UniProt P41145)
# Construct: expressed in transfected cells
# Sequence (P41145 whole entry): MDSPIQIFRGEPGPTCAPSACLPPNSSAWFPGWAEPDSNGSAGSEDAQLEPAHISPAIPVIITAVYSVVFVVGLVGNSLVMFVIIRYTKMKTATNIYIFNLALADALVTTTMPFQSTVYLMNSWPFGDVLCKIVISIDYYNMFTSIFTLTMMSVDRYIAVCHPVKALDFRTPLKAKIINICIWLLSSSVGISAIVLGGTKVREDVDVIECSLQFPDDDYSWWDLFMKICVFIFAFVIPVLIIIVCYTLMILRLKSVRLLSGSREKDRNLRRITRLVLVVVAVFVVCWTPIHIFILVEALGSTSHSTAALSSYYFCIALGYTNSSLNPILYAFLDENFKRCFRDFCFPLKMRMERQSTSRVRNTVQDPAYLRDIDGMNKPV
# runDescription: Opioid receptor binding, [3H]U69,593 (κ)
# testSettings: CHO cell membranes, 1 nM [3H]U69,593, mean±SEM; read-out: Ki [3H]U69,593 (K)
Threshold 1 nM: Ki strictly smaller gives T, otherwise F.

• CC1C2Cc3cc4[nH]c(=O)[nH]c4cc3C1(C)CCN2CC1CC1 (centres unmarked) = F
• CC1C2Cc3ccc4c(NCCc5ccc(-c6ccccc6)cc5)ncnc4c3C1(C)CCN2CC1CC1 (centres unmarked) = F
• CC1C2Cc3ccc4c(NCc5ccccc5)ncnc4c3C1(C)CCN2CC1CC1 (centres unmarked) = F

Shift focus to the following entry.
Query: Regarding C[C@H]1C2Cc3ccc4[nH]nnc4c3[C@@]1(C)CCN2CC1CC1 , kindly confirm whether its Ki is beneath 1 nM.
Result: T

* * *

# testTarget: human opioid receptor (δ) (Homo sapiens, UniProt P41143)
# Construct: expressed in transfected cells
# Sequence (P41143 whole entry): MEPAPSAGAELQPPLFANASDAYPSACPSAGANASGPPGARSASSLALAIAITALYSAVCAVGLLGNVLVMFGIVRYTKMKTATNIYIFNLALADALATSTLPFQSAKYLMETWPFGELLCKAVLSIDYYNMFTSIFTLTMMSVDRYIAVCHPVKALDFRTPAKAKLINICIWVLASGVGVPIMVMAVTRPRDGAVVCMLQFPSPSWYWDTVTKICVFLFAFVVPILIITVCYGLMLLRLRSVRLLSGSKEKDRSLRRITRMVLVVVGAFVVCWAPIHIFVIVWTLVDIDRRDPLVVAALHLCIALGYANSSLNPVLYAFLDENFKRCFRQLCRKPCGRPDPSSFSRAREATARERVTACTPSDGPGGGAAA
# runDescription: Opioid receptor binding, [3H]naltrindole (δ)
# testSettings: read-out: Ki [3H]Naltrindole (δ); CHO cell membranes, 0.2 nM [3H]naltrindole, mean±SEM
measuredParameter: Ki (µM)
Number only, in µM; omit the unit.

Example molecules with recorded Ki:
• C[C@H]1C2Cc3ccc4[nH]nnc4c3[C@@]1(C)CCN2CC1CC1 = 0.046
• C[C@H]1C2Cc3cc4nn[nH]c4cc3[C@@]1(C)CCN2CC1CC1 = 0.051
• C[C@H]1C2Cc3cc4nc[nH]c(=O)c4cc3[C@@]1(C)CCN2CC1CC1 = 0.78

Query: Would you mind telling me what Ki value was observed for C[C@H]1C2Cc3ccc4c(=O)[nH]cnc4c3[C@@]1(C)CCN2CC1CC1 ?
Result: 2

* * *

# testTarget: human opioid receptor (κ) (Homo sapiens, UniProt P41145)
# Construct: expressed in transfected cells
# runDescription: Opioid receptor binding, [3H]U69,593 (κ)
Reported Ki values are given for each entry in this list.
// units = nM; emit number, no label

* C[C@H]1C2Cc3cc(N)c(C(N)=O)cc3[C@@]1(C)CCN2CC1CC1 (racemic) | 32

Consider the additional compound presented here.
Query: Record lookup: for human opioid receptor (κ) (Homo sapiens, UniProt P41145), what Ki belongs to CC1C2Cc3ccc(C(N)=O)c(N)c3C1(C)CCN2CC1CC1 (mixture of isomers) ?
Result: 0.7

* * *

# testTarget: human κ opioid receptor (Homo sapiens)
# Construct: expressed in transfected cells
# Sequence (P41145 whole entry): as the sequence (P41145 whole entry) above
# runDescription: [35S]GTPγS binding assay, κ
# Format: biochemical
# testSettings: agonist/antagonist character; antagonism vs 100 nM U50,488
measuredParameter: GTPγS data, KOR

* C[C@H]1C2Cc3cc4nn[nH]c4cc3[C@@]1(C)CCN2CC1CC1 | agonist
* Cc1nc2cc3c(cc2[nH]1)CC1C(C)C3(C)CCN1CC1CC1 (stereo not shown) | agonist
* C[C@H]1C2Cc3ccc4[nH]nnc4c3[C@@]1(C)CCN2CC1CC1 | agonist

* * *

# testTarget: human opioid receptor (κ) (Homo sapiens, UniProt P41145)
# Construct: expressed in transfected cells
# runDescription: Opioid receptor binding, [3H]U69,593 (κ)
# testSettings: CHO cell membranes, 1 nM [3H]U69,593, mean±SEM; read-out: Ki [3H]U69,593 (K)
measuredParameter: Ki (nM)
Dear colleague, please return just the value in nM, with no unit written.

Known results for compounds:
• CC1C2Cc3cc4ncnc(N)c4cc3C1(C)CCN2CC1CC1 (stereo not drawn) = 560
• C[C@H]1C2Cc3cc4nn[nH]c4cc3[C@@]1(C)CCN2CC1CC1 = 0.81
• CC1C2Cc3cc4ncnc(NCCc5ccc(-c6ccccc6)cc5)c4cc3C1(C)CCN2CC1CC1 (stereo not drawn) = 140
• CC1C2Cc3cc4ncnc(NCc5ccccc5)c4cc3C1(C)CCN2CC1CC1 (stereo not drawn) = 48

Query: Entry CC1C2Cc3cc4nc[nH]c4cc3C1(C)CCN2CC1CC1 (stereo not drawn) : reported Ki = ?
Result: 0.063

Query: // query: C[C@H]1C2Cc3cc4nc[nH]c(=O)c4cc3[C@@]1(C)CCN2CC1CC1
Result: 12

Query: How about this compound: Cc1nc2cc3c(cc2[nH]1)CC1C(C)C3(C)CCN1CC1CC1 (stereo not drawn)
Result: 0.05

Query: Ok, now C[C@H]1C2Cc3ccc4c(N)onc4c3[C@@]1(C)CCN2CC1CC1
Result: 0.65

Query: Next: C[C@H]1C2Cc3ccc4c(=O)[nH]cnc4c3[C@@]1(C)CCN2CC1CC1
Result: 160

* * *

# testTarget: human opioid receptor (μ) (Homo sapiens)
# Construct: expressed in transfected cells
# runDescription: Opioid receptor binding, [3H]DAMGO (μ)
# testSettings: read-out: Ki [3H]DAMGO (μ); CHO cell membranes, […] [3H]DAMGO, mean±SEM
Ki values, listed per item
Hi! Could you send only the number? It should be in nM, unit omitted.

- C[C@H]1C2Cc3cc4nn[nH]c4cc3[C@@]1(C)CCN2CC1CC1: 10
- C[C@H]1C2Cc3cc4nc[nH]c(=O)c4cc3[C@@]1(C)CCN2CC1CC1: 170

Query: Name the reported Ki value associated with the compound C[C@H]1C2Cc3ccc4c(=O)[nH]cnc4c3[C@@]1(C)CCN2CC1CC1
Result: 270

Query: How about this compound: C[C@H]1C2Cc3ccc4[nH]nnc4c3[C@@]1(C)CCN2CC1CC1
Result: 1.4

* * *

# testTarget: human opioid receptor (μ) (Homo sapiens, UniProt P35372)
# Construct: expressed in transfected cells
# Sequence (P35372 whole entry): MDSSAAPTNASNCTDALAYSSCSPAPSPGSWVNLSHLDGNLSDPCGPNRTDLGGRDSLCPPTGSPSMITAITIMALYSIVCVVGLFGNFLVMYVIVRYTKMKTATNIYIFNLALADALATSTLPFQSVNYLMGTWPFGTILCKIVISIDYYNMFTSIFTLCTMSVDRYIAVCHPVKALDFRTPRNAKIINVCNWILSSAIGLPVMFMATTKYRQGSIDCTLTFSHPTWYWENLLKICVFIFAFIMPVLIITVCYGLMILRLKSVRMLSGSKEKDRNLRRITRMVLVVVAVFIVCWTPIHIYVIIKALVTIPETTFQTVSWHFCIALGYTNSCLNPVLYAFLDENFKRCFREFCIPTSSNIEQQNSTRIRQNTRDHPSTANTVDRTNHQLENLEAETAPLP
# runDescription: Opioid receptor binding, [3H]DAMGO (μ)
measuredParameter: pKi
# log scale: pKi equals minus log10 of the concentration in mol/L

* C[C@H]1C2Cc3cc(N)c(C(N)=O)cc3[C@@]1(C)CCN2CC1CC1 (racemic) [Example 7] | 7.06
* CC1C2Cc3ccc(C(N)=O)c(N)c3C1(C)CCN2CC1CC1 (mixture of isomers) [Example 6] | 9.26
* CC1C2Cc3ccc4c(NCc5ccccc5)ncnc4c3C1(C)CCN2CC1CC1 (stereo not shown) [Example 12] | 7.36
* CC1C2Cc3ccc4c(NCCc5ccc(-c6ccccc6)cc5)ncnc4c3C1(C)CCN2CC1CC1 (stereo not shown) [Example 14] | 8.16
* CC1C2Cc3ccc4c(N)ncnc4c3C1(C)CCN2CC1CC1 (stereo not shown) [Example 10] | 9.26

Query: Can you look up the measured pKi of C[C@H]1C2Cc3ccc4c(N)onc4c3[C@@]1(C)CCN2CC1CC1 [Example 43] for me?
Result: 9.12

Query: Same question, CC1C2Cc3cc4ncnc(NCc5ccccc5)c4cc3C1(C)CCN2CC1CC1 (stereo not shown) [Example 13] this time
Result: 7.06
